Cited source for all entries: paper PMC8511083

System: panel of melanoma and breast cancer cell lines
Assay: Average growth inhibition in panel of melanoma and breast cancer cell lines
Assay type: cell-based
Details: Homo sapiens, read-out: Average IC50, average of results obtained in all six cell lines
pIC50: −log10 of the molar value.
Catalogue of pIC50 readings, one per entry.
observable: pIC50

molecule	recorded number
Cc1ccc(-c2cnn(Cc3cc(CN4CCCC4)c(O)c4ncccc34)n2)cc1	5.80
Oc1c(CN2CCOCC2)cc(Cn2ncc(-c3ccc(Br)cc3)n2)c2cccnc12 [Compound 12e]	5.77
CCc1ccc(-c2cnn(Cc3cc(CN4CCCC4)c(O)c4ncccc34)n2)cc1	5.70
O=[N+]([O-])c1ccc(-c2cnn(Cc3cc(CN4CCCC4)c(O)c4ncccc34)n2)cc1	5.62
Oc1c(CN2CCCC2)cc(Cn2cnc(-c3ccccc3)c2)c2cccnc12	5.38
CC(C)c1ccc(COCc2cc(-c3ccnc4ccccc34)c(O)c3ncccc23)cc1 [Compound 19c]	5.85
Oc1c(CN2CCCC2)cc(Cn2ncc(-c3ccc(Br)cc3)n2)c2cccnc12	5.70
Oc1c(CN2CCNCC2)cc(Cn2ncc(-c3ccc(Br)cc3)n2)c2cccnc12	5.59

----------
System: MDA-MB-435
Assay: In vitro antiproliferative
Assay type: cell-based
Settings: Homo sapiens, MDA-MB-435, 72 h, read-out: IC50 MDA-MB-435

mol smiles	readout units	IC50
COCC[n+]1c2c(n(Cc3cnccn3)c1C)C(=O)c1ccccc1C2=O	nM	2.4
